Molecular target: G-protein coupled receptor 55 (Homo sapiens)
Sequence (Q9Y2T6 whole entry): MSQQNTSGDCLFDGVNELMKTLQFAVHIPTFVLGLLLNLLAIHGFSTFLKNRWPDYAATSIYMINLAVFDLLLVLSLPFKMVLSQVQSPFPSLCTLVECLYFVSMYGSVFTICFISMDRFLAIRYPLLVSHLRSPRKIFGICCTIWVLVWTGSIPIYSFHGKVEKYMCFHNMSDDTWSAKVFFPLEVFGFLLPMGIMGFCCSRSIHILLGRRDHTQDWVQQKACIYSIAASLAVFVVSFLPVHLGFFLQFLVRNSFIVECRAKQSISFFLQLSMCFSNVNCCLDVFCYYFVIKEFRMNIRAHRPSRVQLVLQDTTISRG
Experiment: selective activators of receptor GPR55 – imaging, U2OS cells, beta-arrestin-GFP redistribution, primary screen (AID 1961)
Consider the following molecules; for each one, report its EC50.
Please give a number only; it is taken to be in µM.

Req: Entry under review: COc1ccc(C2c3sc4nc(C)cc(C)c4c3OC(=N)C2C#N)cc1 (configuration not stated) . Reported EC50?
Resp: 3.41

Req: Request the reported EC50 associated with `Cc1ccc(NS(=O)(=O)c2cc([N+](=O)[O-])ccc2N=NCc2sc(N3CCOCC3)nc2-c2ccccc2)c(C)c1`
Resp: 0.5

Req: Could you tell me which EC50 is on file for `CC(C)CN1C(=O)/C(=N\NC(=O)c2cccc(S(=O)(=O)N3CCCCC3)c2)c2ccccc21` ?
Resp: 4.75

Req: Consider the molecule shown here: N#CC1C(=O)NC(c2ccc(-c3cc(Cl)ccc3Cl)o2)N(c2ccccc2)C1=S (configuration not stated) What is its recorded EC50?
Resp: 32

Req: Which measured EC50 value corresponds to N#CC1C(=N)OC2=C(CC/C2=C\c2ccccc2)C1c1ccccc1 (configuration not stated) ?
Resp: 32

Req: Which value of EC50 has been reported for `COC1=CC(=Cc2c(-c3ccccc3)[nH]oc2=O)C=C(Cl)C1=O` in the records?
Resp: 32

Req: Which measured EC50 value corresponds to `C=c1[nH]n(-c2ccc(C(=O)O)cc2)c(=O)c1=Cc1ccc(-c2ccccc2F)o1` ?
Resp: 21.3
